# Test system: MDA-MB-468
# Assay Procedure: In vitro cellular uptake of FITC-labeled peptides by FACS
# Type: cell-based
# Test Parameters: soluble FITC-β-alanine-labeled peptide 1 µM, 30 min, 37 °C, FBS free media, 10^5 or 10^6 cells/well, MFI of FITC positive cells, three independent experiments ± SD
Provide the recorded Mean Fluorescence Intensity ± SD MDA-MB-468 for the entries that follow.
Answers are plain numbers.

Please report Mean Fluorescence Intensity ± SD MDA-MB-468 for every entry that follows.
1. Peptide 1: previously reported EGFR targeting dodecapeptide GE11 (YHWYGYTPQNVI), lead peptide [reference compound]
2. YHWYGYTPKNVI [Peptide 26]
3. YHWYGYTPQKVI [Peptide 27]
4. YHWYGYTPQDVI [Peptide 23]

A:
68
6457
5248
4661

====

Provide the recorded Relative Cell Adhesion MDA-MB-436 for the entries that follow.
# System: MDA-MB-436
# Assay Procedure: Peptide array-whole cell binding assay
# Type: cell-based
# Test Parameters: peptide conjugated to cellulose membrane (amino-PEG500), no free C-terminus; cells 75 × 10^3 cells/mL, 37 °C, 4 h; CyQUANT fluorescence relative to peptide 1; spots in duplicate
# Experimental: Peptide array on the cellulose membrane was used to evaluate the binding of each peptide to different cell lines. […] For the binding assay, the peptide array was incubated with the cells in sequential steps as described previously. […] The fluorescence intensity of cancer cells read using chemidoc imager was normalized using the non-cancer cell fluorescence intensity. […]
Answers are plain numbers.

Some solved entries appear below for comparison.
Residue String	Result Number
WXEAAYQRFL [Peptide 5, positive control, peptide 18 from a previous study, WXEAAYQRFL, reference compound]	1.8
YHWYGYTPQNVA [Peptide 17]	1.2
YHWYAYTPQNVI [Peptide 10]	1.2
YHWYGYTPQN [Peptide 19]	1.1

Below are some sequences; for each one, tell me its Relative Cell Adhesion MDA-MB-436.
1. YHWYGYTPQKVI [Peptide 27]
2. YHWYGYTPANVI [Peptide 14]

A:
1. 1.0
2. 1.2

====

Exercise: state measured Mean Fluorescence Intensity ± SD MDA-MB-436 for each of the substances provided.
# Tested on: MDA-MB-436
# Assay Procedure: In vitro cellular uptake of FITC-labeled peptides by FACS
# Type: cell-based
# Test Parameters: soluble FITC-β-alanine-labeled peptide 1 µM, 30 min, 37 °C, FBS free media, 10^5 or 10^6 cells/well, MFI of FITC positive cells, three independent experiments ± SD

Substance	Result
YHWYGYTPQDVI [Peptide 23]	36 ± 14

Each substance below has a recorded value; state its Mean Fluorescence Intensity ± SD MDA-MB-436.
1. YHWYGYTPKNVI [Peptide 26]
2. Peptide 4: positive control peptide p160, VPWXEPAYQRFL, binds keratin 1 [reference compound]
3. YHWYGYTPQKVI [Peptide 27]

A:
1. 16 ± 18
2. 305 ± 58
3. 21 ± 17

Q: Fill blank: measured Mean Fluorescence Intensity ± SD MDA-MB-436 of the substance Peptide 1: previously reported EGFR targeting dodecapeptide GE11 (YHWYGYTPQNVI), lead peptide [reference compound] is ____.
A: 105 ± 11

====

# System: MDA-MB-436
# Assay Procedure: Peptide array-whole cell binding assay
# Format: cell-based
# Test Parameters: peptide conjugated to cellulose membrane (amino-PEG500), no free C-terminus; cells 75 × 10^3 cells/mL, 37 °C, 4 h; CyQUANT fluorescence relative to peptide 1; spots in duplicate
Measured Property: Relative Cell Adhesion MDA-MB-436
Answers are plain numbers.

Solved cases below.
Residue String	Relative Cell Adhesion MDA-MB-436
YHWYGFTPQNVI [Peptide 30]	0.9
YKWYGYTPQNVI [Peptide 24]	1.0
YAWYGYTPQNVI [Peptide 7]	1.0
YHWYGYTPQDVI [Peptide 23]	1.0

Give me Relative Cell Adhesion MDA-MB-436 for each of these sequences, listed below.
1. YHWYGYTPQNAI [Peptide 16]
2. YHWAGYTPQNVI [Peptide 9]

A:
1. 1.0
2. 1.2

Please look at the items below and tell me Relative Cell Adhesion MDA-MB-436 for each one, in order.
1. AHWYGYTPQNVI [Peptide 6]
2. WYGYTPQNVI [Peptide 21]

A:
1. 1.0
2. 1.0

Q: Name the recorded Relative Cell Adhesion MDA-MB-436 for YHWFGYTPQNVI [Peptide 29] .
A: 1.1
